Cited source for all entries: paper PMC2756588

- target-or-test-system: T1, Lsb4, P32793
- T1 sequence (P32793 402-468, looked up): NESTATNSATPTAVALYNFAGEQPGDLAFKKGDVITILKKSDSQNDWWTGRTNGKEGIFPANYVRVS
- protocol-details: SPOT array
- experimental-setup: median of control spots 397
Below: a set of entries, each annotated with reported SPOT intensity.

Worked cases, SPOT intensity given:
HRRRRVFSIPSLKSI | 10
LKPPIGRPPKFPKSP | 0
QTREPNEPPPPSPAM | 13

Query string: Param item = SRYRRPLTLLLLKPF ; retrieve measured SPOT intensity.
Result string: 2
